Target Desc: IL-17A/A (Homo sapiens)
Construct: purchased Genscript Z03228
Sequence (Q16552 24-155): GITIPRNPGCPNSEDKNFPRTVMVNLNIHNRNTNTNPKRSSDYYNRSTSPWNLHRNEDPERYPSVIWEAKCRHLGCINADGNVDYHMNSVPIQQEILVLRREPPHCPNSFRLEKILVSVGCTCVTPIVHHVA
Assay Name: IL-17A/A HEK-Blue cell assay (SEAP reporter)
Assay type: cell-based
Conditions Used: HEK-Blue IL-17A reporter cells, IL17A/A 5 ng/mL, 20 hours, SEAP read at A630; read-out: HEK-Blue IL17AA (IC50 for IL-17A/A inhibition)
# maps each entry to its IC50

Worked set:
[[record]]
molecule = "CCn1nccc1C(=O)N[C@H](c1cn2nc(C[C@H]3C[C@H](C(F)(F)F)CNC3=O)c(C3CCOCC3)nc2n1)C1CCC(F)(F)CC1"
recorded_result = "< 100 nM"

[[record]]
molecule = "Cn1nccc1C(=O)N[C@H](c1cn2nc(C[C@H]3C[C@@H](C(F)(F)F)CNC3=O)c(C3CCOCC3)nc2n1)C1CCC(F)(F)CC1"
recorded_result = "< 100 nM"

[[record]]
molecule = "CCn1nccc1C(=O)N[C@H](c1cn2nc(C[C@@H]3C(=O)NC[C@@H]4C[C@@H]43)c(C3CCOCC3)nc2n1)C1CCC(F)(F)CC1"
recorded_result = "100 to 1000 nM"

[[record]]
molecule = "CCn1nccc1C(=O)N[C@H](c1cn2nc(C[C@H]3C[C@@H](C(F)(F)F)CNC3=O)c(OC(C)C)nc2n1)C1CCC(F)(F)CC1"
recorded_result = "< 100 nM"

[[record]]
molecule = "CC(C)c1nocc1C(=O)N[C@H](c1cn2nc(C[C@H]3C[C@@H](C(F)(F)F)CNC3=O)cnc2n1)C1CCC(F)(F)CC1"
recorded_result = "100 to 1000 nM"

[[record]]
molecule = "CCn1nccc1C(=O)N[C@H](c1cn2nc(C[C@H]3C[C@@H](C(F)(F)F)CNC3=O)c(C3CCCN3C)nc2n1)C1CCC(F)(F)CC1 (stereo partly shown)"
recorded_result = "100 to 1000 nM"


Exam item: Need IC50 of `Cc1nonc1C(=O)N[C@H](c1cn2nc(C[C@H]3C[C@@H](C(F)(F)F)CNC3=O)c(C3CCOCC3)nc2n1)[C@H]1C[C@H](C2CC2)C1` , thanks.
Marked response: < 100 nM

Exam item: Need IC50 of CCn1nccc1C(=O)N[C@H](c1cn2nc(C[C@H]3C[C@@H](C(F)(F)F)CNC3=O)c(CN3CCOC(C)C3)nc2n1)C1CCC(F)(F)CC1 (stereo partly shown) , thanks.
Marked response: < 100 nM

Exam item: Need IC50 of `CCn1nccc1C(=O)N[C@H](c1cn2nc(C[C@H]3C[C@@H](C(F)(F)F)CNC3=O)c(N3CCN(C)C4(CC4)C3)nc2n1)C1CCC(F)(F)CC1` , thanks.
Marked response: < 100 nM

Exam item: Need IC50 of O=C(N[C@H](c1cn2nc(CC3C[C@@H](C(F)(F)F)CNC3=O)c(N3CCOCC3)nc2n1)C1CCC(F)(F)CC1)c1conc1C1CC1(F)F (single isomer, unassigned) [Compound 113] , thanks.
Marked response: < 100 nM
